- PROTOCOL SUMMARY: Tissue distribution of curcumin and THC at necropsy 15 minutes post-infusion
- Set-up: species or system Beagle dogs
- MEASUREMENT SETUP: both sexes, beagle, dog, in vivo, 10 mg/kg, Eight hour infusion; H3PO4 stabilized; read-out: Average tissue concentration, Spleen
PROPERTY: concentration at 15 min (ng/g)
Answers are plain numbers, in ng/g.

Lookup: // query concentration at 15 min value for entry COc1cc(CCC(=O)CC(=O)CCc2ccc(O)c(OC)c2)ccc1O [THC, tetrahydrocurcumin]
Found: 0.42

###

- PROTOCOL SUMMARY: Plasma, urine and bile levels of curcumin and THC 15 minutes post-infusion
- Format: in vivo, Beagle dogs
- MEASUREMENT SETUP: both sexes, beagle, dog, in vivo, 10 mg/kg, higher infusion rate (5 mg/kg/hr); read-out: urine to plasma concentration ratio
- Description: The results and analysis for the study are presented for intravenous infusion dosing of a total dose of 10 mg/kg infused over a period of either 2 or 8 hours. Plasma levels of curcumin and its metabolite, THC were measured at timed intervals post-dosing. Bioanalysis was performed on two sets of samples, one set that was treated with phosphoric acid and one set that was not treated with phosphoric acid. […] Values that were below the limit of quantification were assigned a value of 0. […]
PROPERTY: Kp
One number for each entry.

Lookup: Requested field: Kp. Item: COc1cc(CCC(=O)CC(=O)CCc2ccc(O)c(OC)c2)ccc1O [THC, tetrahydrocurcumin]
Found: 4.4
